- measured target: human c-MER catalytic domain (Homo sapiens (Human))
- Sequence (Q12866 587-858): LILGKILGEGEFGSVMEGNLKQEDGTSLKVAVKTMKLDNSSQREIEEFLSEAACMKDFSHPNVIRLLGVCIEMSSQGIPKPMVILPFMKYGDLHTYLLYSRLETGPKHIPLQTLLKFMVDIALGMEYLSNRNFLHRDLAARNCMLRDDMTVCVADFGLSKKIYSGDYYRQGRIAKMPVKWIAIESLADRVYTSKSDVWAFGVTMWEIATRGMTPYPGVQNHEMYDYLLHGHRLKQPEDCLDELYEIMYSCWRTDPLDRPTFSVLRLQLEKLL
- method notes: LanthaScreen TR-FRET kinase assay, c-MER
- condition description: read-out: Mer TK inhibition (IC50); Biochemical IC50, TR-FRET, 10 uM ATP
attribute measured: IC50

>>> reported_value("CN1CCN(Cc2ccc(-c3ccc(CO[C@H]4CCC[C@@H]4NC(=O)c4cc(-c5cnn(C)c5)cnc4N)cc3)c(Cl)c2)CC1")
"< 10 nM"
>>> reported_value("C[C@@H]1CN(Cc2ccc(-c3ccc(CO[C@H]4CCC[C@@H]4NC(=O)c4cc(-c5cnn(C)c5)cnc4N)cc3)cc2)C[C@H](C)N1")
"< 10 nM"
>>> reported_value("Cn1cc(-c2cnc(N)c(C(=O)N[C@H]3CCC[C@@H]3OCc3cccc(-c4cccc(CO)c4)c3)c2)cn1")
"> 1000 nM"
>>> reported_value("CC(c1ccc(-c2ccc(CO[C@H]3CCC[C@@H]3NC(=O)c3cc(-c4ccc(F)nc4)cnc3N)cc2)cc1)N1CCN(CCO)CC1 (stereo partly drawn)")
"< 10 nM"
>>> reported_value("CN1C[C@H](NC(=O)c2cc(-c3cnn(C)c3)cnc2N)[C@@H](OCc2ccc(-c3ccc(C(C)(C)N4CCN(CCO)CC4)cc3)cc2)C1")
"< 10 nM"

Here is another compound to look at.
Write down IC50 measured for item `N#Cc1ccc(-c2cnc(N)c(C(=O)N[C@H]3CCC[C@@H]3OCc3ccccc3)c2)cc1` > 1000 nM
